Tested on: Candida albicans IFO1385
assay: Antifungal activity: MIC against Candida albicans IFO1385 on yeast nitrogen base agar
Format: cell-based
conditionDetails: 48 h; 2 days of incubation at 37° C., yeast nitrogen base agar with 1% glucose and 0.25% dipotassium hydrogen phosphate; single use; read-out: MIC
Below is a list of entries, each paired with its recorded MIC value.
# output: bare number, implied unit µg/mL

Some solved entries appear below for comparison.
[[record]]
compound = "CC(C)CCOC1C2OC3(OCC45CC6C(C)CCC6C6(C=O)CC4C=C(C(C)C)C65C(=O)O)OC2OC1C3O (stereo not shown) [Compound 44]"
measurementlabel = "MIC"
assayvalue = 3.13

[[record]]
compound = "CCCCCCC(=O)OC1C2OC3(OCC45CC6C(C)CCC6C6(C=O)CC4C=C(C(C)C)C65C(=O)O)OC2OC1C3O (stereo not shown) [Compound 14]"
measurementlabel = "MIC"
assayvalue = 1.56

[[record]]
compound = "CCCCCOC1C2OC3(OCC45CC6C(C)CCC6C6(C=O)CC4C=C(C(C)C)C65C(=O)O)OC2OC1C3O (stereo not shown) [Compound 41]"
measurementlabel = "MIC"
assayvalue = 1.56


Consider the record given below.
Assay Candida albicans IFO1385, sample CCCCCC(=O)OC1C2OC3(OCC45CC6C(C)CCC6C6(C=O)CC4C=C(C(C)C)C65C(=O)O)OC2OC1C3O (stereo not shown) [Compound 13] , MIC read: 3.13
